pIC50 listing for selected molecules.
Target: Mitogen-activated protein kinase kinase kinase 8 (Homo sapiens)
Sequence (P41279 whole entry): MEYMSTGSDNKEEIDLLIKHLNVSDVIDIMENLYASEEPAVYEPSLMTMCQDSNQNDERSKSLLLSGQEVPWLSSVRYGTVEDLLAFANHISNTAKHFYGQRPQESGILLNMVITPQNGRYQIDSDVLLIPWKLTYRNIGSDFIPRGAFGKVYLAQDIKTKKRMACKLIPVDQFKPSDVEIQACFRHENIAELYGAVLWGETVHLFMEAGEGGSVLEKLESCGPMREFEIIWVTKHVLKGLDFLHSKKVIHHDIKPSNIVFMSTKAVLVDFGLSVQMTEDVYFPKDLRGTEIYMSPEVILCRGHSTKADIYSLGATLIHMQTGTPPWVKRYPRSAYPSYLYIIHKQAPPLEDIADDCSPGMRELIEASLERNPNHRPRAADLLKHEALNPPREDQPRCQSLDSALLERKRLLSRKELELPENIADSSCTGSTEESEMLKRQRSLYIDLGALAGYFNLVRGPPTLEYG
Assay: Inhibition of Tpl2
pIC50: −log10 of the molar value.

COC[C@H]1OC(=O)/C(=C/N(C)CCCN(C)C)C2=C(O)C(=O)C3=C([C@H](OC(C)=O)C[C@]4(C)[C@@H](O)CC[C@@H]34)[C@]21C : < 4.40

What does the data say about its pIC50? Entry: COC[C@H]1OC(=O)/C(=C/N(CCO)C(C)(C)C)C2=C(O)C(=O)C3=C([C@H](OC(C)=O)C[C@]4(C)[C@@H](O)CC[C@@H]34)[C@]21C < 4.40

---

Each entry below lists one item and its recorded log10 IC50 value.
Tested on: LNCaP
Test: Growth inhibition of human LNCap cells
Format: functional, cell-based
Please note: log10 values; quantity IC50; unit nM.

Below, 10 molecules whose answers are already recorded.
COC[C@H]1OC(=O)/C(=C/N(C)CCCN2CCN(c3ccc(OC)cc3)CC2)C2=C(O)C(=O)C3=C([C@H](OC(C)=O)C[C@]4(C)[C@@H](O)CC[C@@H]34)[C@]21C : 2.79
COC[C@H]1OC(=O)/C(=C/N2CCN(C3CCN(C)CC3)CC2)C2=C(O)C(=O)C3=C([C@H](OC(C)=O)C[C@]4(C)[C@@H](O)CC[C@@H]34)[C@]21C : 2.89
COC[C@H]1OC(=O)/C(=C/N2CCN(C3CCCCC3)CC2)C2=C(O)C(=O)C3=C([C@H](OC(C)=O)C[C@]4(C)[C@@H](O)CC[C@@H]34)[C@]21C : 3.17
COC[C@H]1OC(=O)/C(=C/NC(C)(C)C)C2=C(O)C(=O)C3=C([C@H](OC(C)=O)C[C@]4(C)[C@@H](O)CC[C@@H]34)[C@]21C : 4.61
COC[C@H]1OC(=O)/C(=C/N2CCOCC2)C2=C(O)C(=O)C3=C([C@H](OC(C)=O)C[C@]4(C)[C@@H](O)CC[C@@H]34)[C@]21C : 2.98
COC[C@H]1OC(=O)/C(=C/N(C)CCCN2CCOCC2)C2=C(O)C(=O)C3=C([C@H](OC(C)=O)C[C@]4(C)[C@@H](O)CC[C@@H]34)[C@]21C : 2.77
CCN(/C=C1/C(=O)O[C@H](COC)[C@@]2(C)C1=C(O)C(=O)C1=C2[C@H](OC(C)=O)C[C@]2(C)[C@@H](O)CC[C@@H]12)CCN(CC)CC : 3.12
CCN(/C=C1/C(=O)O[C@H](COC)[C@@]2(C)C1=C(O)C(=O)C1=C2[C@H](O)C[C@]2(C)[C@@H](O)CC[C@@H]12)CC : 2.85
COC[C@H]1OC(=O)/C(=C/N2CCN(CCCN3CCOCC3)CC2)C2=C(O)C(=O)C3=C([C@H](OC(C)=O)C[C@]4(C)[C@@H](O)CC[C@@H]34)[C@]21C : 2.80
CCN(/C=C1/C(=O)O[C@H](COC)[C@@]2(C)C1=C(O)C(=O)C1=C2[C@H](OC(C)=O)C[C@]2(C)[C@@H](O)CC[C@@H]12)CCN(C)C : 3.01

Looking for the measured log10 IC50 of COC[C@H]1OC(=O)/C(=C/N(C)C(C)(C)C)C2=C(O)C(=O)C3=C([C@H](OC(C)=O)C[C@]4(C)[C@@H](O)CC[C@@H]34)[C@]21C , can you help? 2.28

Need log10 IC50, item COC[C@H]1OC(=O)/C(=C/N(C)C2CCN(C)C2)C2=C(O)C(=O)C3=C([C@H](OC(C)=O)C[C@]4(C)[C@@H](O)CC[C@@H]34)[C@]21C (some centres not stated) 3.00
